System: A498 renal
test_description: NCI tumour cell line growth inhibition, 48 h
Listing: TGI of selected compounds

>  <smiles_representation>
Cc1ccsc1/C=N/Nc1nncc2ccccc12

>  <reported_measurement>
> 100 µM

$$$$
>  <smiles_representation>
CCCCCCCC(=O)SCC/C=C/[C@@H]1CC(=O)NCc2nc(co2)C2=N[C@@](C)(CS2)C(=O)N[C@@H](C(C)C)C(=O)O1

>  <reported_measurement>
0.0396 µM

$$$$

--- query ---
Input `COc1ccc(-c2cc(-c3cc(OC)c(OC)c(OC)c3)c(C#N)c(N3CCOCC3)n2)cc1O` . Output TGI: > 77.9 µM
